# experimentalTarget: T1, MBP-fused CAND1 (human, UniProt Q86VP6 1-1230)
# T1 construct: Cullin-associated and neddylation-dissociated 1 (CAND1), human; cDNA bought from the Kazusa DNA Research Institute, in pMAL-C2; also called MBP-CAND1; source: E. coli Rosetta-Gami, purified (amylose resin, eluted with maltose)
# T1 sequence (looked up): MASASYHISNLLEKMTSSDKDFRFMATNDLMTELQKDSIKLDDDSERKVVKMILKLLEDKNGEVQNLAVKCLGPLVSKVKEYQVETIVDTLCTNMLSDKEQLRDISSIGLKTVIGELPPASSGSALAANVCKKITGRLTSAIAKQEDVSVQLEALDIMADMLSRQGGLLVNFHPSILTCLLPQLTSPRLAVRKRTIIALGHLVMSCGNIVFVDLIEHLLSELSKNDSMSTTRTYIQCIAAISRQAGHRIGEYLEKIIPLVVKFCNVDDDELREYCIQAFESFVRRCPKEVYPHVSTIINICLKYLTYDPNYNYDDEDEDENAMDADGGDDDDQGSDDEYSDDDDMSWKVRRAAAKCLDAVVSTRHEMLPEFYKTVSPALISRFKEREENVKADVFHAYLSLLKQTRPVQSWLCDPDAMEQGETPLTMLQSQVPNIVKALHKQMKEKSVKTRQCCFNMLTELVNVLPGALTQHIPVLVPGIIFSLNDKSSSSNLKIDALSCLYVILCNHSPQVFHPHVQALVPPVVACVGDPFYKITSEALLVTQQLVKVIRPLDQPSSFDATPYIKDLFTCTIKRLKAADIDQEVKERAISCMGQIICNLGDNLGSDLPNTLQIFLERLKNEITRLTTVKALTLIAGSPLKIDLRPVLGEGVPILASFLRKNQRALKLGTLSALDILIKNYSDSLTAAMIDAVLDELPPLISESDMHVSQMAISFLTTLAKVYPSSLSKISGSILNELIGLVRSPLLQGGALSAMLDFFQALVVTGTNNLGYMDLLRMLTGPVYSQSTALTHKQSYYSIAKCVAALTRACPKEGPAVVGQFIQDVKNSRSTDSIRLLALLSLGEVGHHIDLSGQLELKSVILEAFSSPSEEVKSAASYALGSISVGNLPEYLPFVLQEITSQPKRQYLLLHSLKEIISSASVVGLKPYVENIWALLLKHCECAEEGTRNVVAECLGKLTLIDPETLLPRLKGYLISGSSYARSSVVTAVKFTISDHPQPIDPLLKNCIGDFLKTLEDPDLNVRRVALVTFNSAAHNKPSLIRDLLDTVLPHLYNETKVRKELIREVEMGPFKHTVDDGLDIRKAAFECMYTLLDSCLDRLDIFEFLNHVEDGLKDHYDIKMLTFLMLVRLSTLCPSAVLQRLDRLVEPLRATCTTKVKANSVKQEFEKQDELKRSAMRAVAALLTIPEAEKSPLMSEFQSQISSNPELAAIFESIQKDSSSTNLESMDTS
# testProtocol: pull-down; His-Lnp WT or deletion mutants (0.5 nmol) immobilised on Ni-agarose, incubated with MBP-CAND1 or MBP alone (3 nmol) in buffer G with 10 mM imidazole, 4 °C 2 h; CBB staining
# condition: both partners purified
propertyLabel: binding result

- binder: "His-Lnp ΔTM (transmembrane domains replaced by a (GGS)3 linker) (natural protein, human, lunapark (Lnp), human, the stretch before the transmembrane domains (45–100 aa); polypeptide linker (GGS)3 in place of residues 45–100; lunapark (Lnp), human, the stretch after the transmembrane domains (45–100 aa); source: E. coli BL21 (DE3), purified (Ni-agarose)) MGGLFSRWRTKPSTVEVLESIDKEIQALEEFREKNQRLQKLWVGGGSGGSGGSRTERNNEALDDLKSQRKKILEEVMEKETYKTAKLILERFDPDSKKAKECEPPSAGAAVTARPGQEIRQRTAAQRNLSPTPASPNQGPPPQVPVSPGPPKDSSAPGGPPERTVTPALSSNVLPRHLGSPATSVPGMGLHPPGPPLARPILPRERGALDRIVEYLVGDGPQNRYALICQQCFSHNGMALKEEFEYIAFRCAYCFFLNPARKTRPQAPRLPEFSFEKRQVVEGSSSVGPLPSGSVLSSDNQFNEESLEHDVLDDNTEQTDDKIPATEQTNQVIEKASDSEEPEEKQETENEEASVIETNSTVPGADSIPDPELSGESLTAE"
  propertyLabel: "binding result"
  observedResult: "binds"

All figures here come from paper PMC6739345.
